# credit: patent US20230310428A1

# measuredTarget: various mutants of kinase EGFR (BaF3 cell lines stably transfected with kinase) (Homo sapiens)
# Construct: other: BaF3 cells stably transfected with EGFR Δ19Del; MTS, 48 h; other: BaF3 cell line stably transfected with EGFR Δ19Del
# experimentalDetails: Growth inhibitory activity of compounds on BaF3 cell lines stably transfected with kinase (MTS, 48 h)
# Type: cell-based
# conditionSet: BaF3 cells stably transfected with EGFR Δ19Del, read-out: IC50, growth inhibition, Δ19Del
pIC50: −log10 of the molar value.
attributeMeasured: pIC50

response.value for CCc1cc(Nc2ncc(C(F)(F)F)c(Nc3ccc4nccnc4c3N(C)S(C)(=O)=O)n2)c(OC)cc1N1CCC(N2CCN(C)CC2)CC1 (field: pIC50) = ≥ 7.30

response.value for COc1cc(N2CCC(N3CCN(C)CC3)CC2)c(C)cc1Nc1ncc(Cl)c(Nc2ccc3nccnc3c2N(C2CC2)S(C)(=O)=O)n1 (field: pIC50) = ≥ 7.30

response.value for C=Cc1cc(Nc2ncc([N+](=O)[O-])c(Nc3ccc4nccnc4c3N(C)S(C)(=O)=O)n2)c(OC(F)(F)F)cc1N1CCC(N2CCN(C)CC2)CC1 (field: pIC50) = 5.60 to 6.30

response.value for C=Cc1cc(Nc2ncc(Cl)c(Nc3ccc4nccnc4c3N(C)S(=O)(=O)CC)n2)c(OC(F)(F)F)cc1N1CCC(N2CCN(C)CC2)CC1 (field: pIC50) = 6.30 to 7.30

response.value for CCc1cc(Nc2ncc(Cl)c(Nc3ccc4nccnc4c3N(C)S(=O)(=O)CC)n2)c(OC)cc1N1CCC(N(C)C)CC1 (field: pIC50) = ≥ 7.30

response.value for CCc1cc(Nc2ncc([N+](=O)[O-])c(Nc3ccc4nccnc4c3N(C)S(C)(=O)=O)n2)c(OC)nc1N1CCC(N2CCN(C)CC2)CC1 (field: pIC50) = 6.30 to 7.30

* * *

# measuredTarget: various mutants of kinase EGFR (BaF3 cell lines stably transfected with kinase) (Homo sapiens, UniProt P00533, T790M/C797S, form not given)
# Construct: other: BaF3 cells stably transfected with EGFR Δ19Del/T790M/C797S; MTS, 48; other: BaF3 cell line stably transfected with EGFR Δ19Del/T790M/C7
# Sequence (P00533 with tags, fused parts or gaps DEL746-750/T790M/C797S, form open): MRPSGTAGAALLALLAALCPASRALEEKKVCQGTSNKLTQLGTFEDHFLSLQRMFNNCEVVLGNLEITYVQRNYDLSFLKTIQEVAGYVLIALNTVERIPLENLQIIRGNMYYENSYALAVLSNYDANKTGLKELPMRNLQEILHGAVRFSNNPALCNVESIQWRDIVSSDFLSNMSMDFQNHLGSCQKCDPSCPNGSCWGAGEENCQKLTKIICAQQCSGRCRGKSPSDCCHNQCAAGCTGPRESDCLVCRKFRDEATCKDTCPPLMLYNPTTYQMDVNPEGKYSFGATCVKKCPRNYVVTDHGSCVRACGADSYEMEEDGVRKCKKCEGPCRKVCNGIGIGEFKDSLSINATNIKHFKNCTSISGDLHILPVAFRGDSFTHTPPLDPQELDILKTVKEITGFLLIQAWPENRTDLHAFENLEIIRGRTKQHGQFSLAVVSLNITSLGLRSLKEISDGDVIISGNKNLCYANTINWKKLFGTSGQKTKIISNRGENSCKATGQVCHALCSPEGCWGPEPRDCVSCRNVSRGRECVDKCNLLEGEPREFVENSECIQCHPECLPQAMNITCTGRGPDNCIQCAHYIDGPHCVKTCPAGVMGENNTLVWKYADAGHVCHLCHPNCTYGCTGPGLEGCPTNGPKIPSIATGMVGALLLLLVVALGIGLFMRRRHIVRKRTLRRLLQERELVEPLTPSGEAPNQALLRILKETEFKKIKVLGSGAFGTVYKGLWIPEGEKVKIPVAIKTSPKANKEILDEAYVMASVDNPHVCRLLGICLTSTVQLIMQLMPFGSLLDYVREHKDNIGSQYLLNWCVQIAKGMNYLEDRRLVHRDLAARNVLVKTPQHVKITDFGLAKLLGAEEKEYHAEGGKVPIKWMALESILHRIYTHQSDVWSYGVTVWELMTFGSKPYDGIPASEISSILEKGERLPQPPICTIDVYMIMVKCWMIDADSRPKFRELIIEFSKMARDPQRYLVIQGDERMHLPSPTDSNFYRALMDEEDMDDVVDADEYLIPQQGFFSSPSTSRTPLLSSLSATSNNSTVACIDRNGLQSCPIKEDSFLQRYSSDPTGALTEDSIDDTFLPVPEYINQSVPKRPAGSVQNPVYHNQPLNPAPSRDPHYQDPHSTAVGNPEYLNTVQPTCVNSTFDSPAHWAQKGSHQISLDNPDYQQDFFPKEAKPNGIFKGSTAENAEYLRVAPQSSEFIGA
# experimentalDetails: Growth inhibitory activity of compounds on BaF3 cell lines stably transfected with kinase (MTS, 48 h)
# Format: cell-based
# conditionSet: BaF3 cells stably transfected with EGFR Δ19Del/T790M/C797S, read-out: IC50, growth inhibition, Δ19Del/T790M/C797S
Reported IC50 is given for each of the following compounds.

response.value for CCc1cc(Nc2ncc(Br)c(Nc3ccc4nccnc4c3N(CC)S(C)(=O)=O)n2)c(OC)nc1N1CCC(N2CCN(C)CC2)CC1 [Compound I-212] (field: IC50) = ≤ 50 nM

response.value for CCS(=O)(=O)N(C)c1c(Nc2nc(Nc3ccc(N4CCC(N5CCN(C)CC5)CC4)cc3OC)ncc2Cl)ccc2nccnc12 [Compound I-294] (field: IC50) = ≤ 50 nM

response.value for CCc1cc(Nc2ncc(Cl)c(Nc3ccc4nccnc4c3N(C)S(=O)(=O)CC)n2)c(OC)cc1N1CCN(C)CC1 [Compound I-236] (field: IC50) = ≤ 50 nM

response.value for CCc1cc(Nc2ncc(Br)c(Nc3ccc4nccnc4c3N(C)S(=O)(=O)C(F)(F)F)n2)c(OC)cc1N1CCC(N(C)C)CC1 [Compound I-127] (field: IC50) = ≤ 50 nM

response.value for CCc1cc(Nc2ncc(Cl)c(Nc3ccc4nccnc4c3N(C)S(=O)(=O)C(F)(F)F)n2)c(OC)nc1N1CCC(N2CCN(C)CC2)CC1 [Compound I-262] (field: IC50) = 50 to 500 nM

* * *

Reported pIC50 is given for each of the following compounds.
# measuredTarget: various mutants of kinase EGFR (BaF3 cell lines stably transfected with kinase) (Homo sapiens, UniProt P00533, T790M/C797S, form not given)
# Construct: other: BaF3 cells stably transfected with EGFR Δ19Del/T790M/C797S; MTS, 48; other: BaF3 cell line stably transfected with EGFR Δ19Del/T790M/C7
# experimentalDetails: Growth inhibitory activity of compounds on BaF3 cell lines stably transfected with kinase (MTS, 48 h)
# Type: cell-based
# conditionSet: BaF3 cells stably transfected with EGFR Δ19Del/T790M/C797S, read-out: IC50, growth inhibition, Δ19Del/T790M/C797S
pIC50: −log10 of the molar value.

compound | pIC50
CCN(c1c(Nc2nc(Nc3cc(C)c(N4CCC(N5CCN(C)CC5)CC4)nc3OC)ncc2Br)ccc2nccnc12)S(C)(=O)=O [Compound I-297] | 5.60 to 6.30
CN1CCN(C2CCN(c3ccc(Nc4ncc(Cl)c(Nc5ccc6nccnc6c5N(C)S(C)(=O)=O)n4)c(OC(F)(F)F)c3)CC2)CC1 [Compound I-166] | ≥ 7.30

Please turn your attention to the following entry.
response.value for C=Cc1cc(Nc2ncc(F)c(Nc3ccc4nccnc4c3N(C)S(C)(=O)=O)n2)c(OC(F)(F)F)cc1N1CCC(N2CCN(C)CC2)CC1 [Compound I-180] (field: pIC50) = ≥ 7.30

* * *

# measuredTarget: various mutants of kinase EGFR (BaF3 cell lines stably transfected with kinase) (Homo sapiens, UniProt P00533, L858R/T790M)
# Construct: expressed in transfected cells; host or cells: BaF3
# Sequence (P00533 25-1210 T790M/L858R): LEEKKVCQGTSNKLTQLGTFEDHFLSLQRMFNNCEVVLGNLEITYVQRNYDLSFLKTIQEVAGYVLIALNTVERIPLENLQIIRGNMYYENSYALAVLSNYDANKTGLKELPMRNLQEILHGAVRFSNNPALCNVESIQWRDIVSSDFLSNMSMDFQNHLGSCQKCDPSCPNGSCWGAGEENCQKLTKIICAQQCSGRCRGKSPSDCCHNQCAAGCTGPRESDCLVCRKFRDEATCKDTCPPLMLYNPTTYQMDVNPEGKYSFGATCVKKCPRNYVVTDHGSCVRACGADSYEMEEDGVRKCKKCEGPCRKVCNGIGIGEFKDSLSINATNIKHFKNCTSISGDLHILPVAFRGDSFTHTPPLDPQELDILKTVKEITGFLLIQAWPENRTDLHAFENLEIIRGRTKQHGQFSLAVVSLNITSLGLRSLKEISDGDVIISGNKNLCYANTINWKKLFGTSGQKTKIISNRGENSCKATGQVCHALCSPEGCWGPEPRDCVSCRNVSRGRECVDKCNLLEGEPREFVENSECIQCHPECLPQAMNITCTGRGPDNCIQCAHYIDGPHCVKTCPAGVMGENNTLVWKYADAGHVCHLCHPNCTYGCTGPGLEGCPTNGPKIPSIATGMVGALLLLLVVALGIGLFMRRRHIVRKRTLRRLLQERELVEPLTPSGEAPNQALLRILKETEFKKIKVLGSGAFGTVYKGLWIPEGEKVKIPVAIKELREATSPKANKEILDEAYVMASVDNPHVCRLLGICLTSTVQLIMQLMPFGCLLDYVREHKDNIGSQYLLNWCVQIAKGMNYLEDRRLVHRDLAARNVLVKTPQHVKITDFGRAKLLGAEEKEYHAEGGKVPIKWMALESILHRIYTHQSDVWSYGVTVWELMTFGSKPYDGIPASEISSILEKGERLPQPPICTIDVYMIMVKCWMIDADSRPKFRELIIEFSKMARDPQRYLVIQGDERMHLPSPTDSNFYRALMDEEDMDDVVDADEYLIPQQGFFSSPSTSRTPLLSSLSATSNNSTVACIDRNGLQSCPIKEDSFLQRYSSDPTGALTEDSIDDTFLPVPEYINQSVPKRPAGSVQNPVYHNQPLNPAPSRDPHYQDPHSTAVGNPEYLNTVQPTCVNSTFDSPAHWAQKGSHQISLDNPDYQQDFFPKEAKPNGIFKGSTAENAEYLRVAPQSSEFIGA
# experimentalDetails: Growth inhibitory activity of compounds on BaF3 cell lines stably transfected with kinase (MTS, 48 h)
# Format: cell-based
# conditionSet: BaF3 cell line stably transfected with EGFR L858R/T790M, read-out: L858R/ T790M growth inhibitory activity IC50
attributeMeasured: IC50

molecule | IC50
CCc1cc(Nc2ncc(Br)c(Nc3ccc4nccnc4c3NS(=O)(=O)C(C)C)n2)c(OC)cc1N1CCC(N2CCN(C)CC2)CC1 [Compound I-415] | ≤ 50 nM
C=Cc1cc(Nc2ncc(Br)c(Nc3ccc4nccnc4c3N(C3CC3)S(C)(=O)=O)n2)c(OC(F)(F)F)cc1N1CCC(N2CCN(C)CC2)CC1 [Compound I-307] | 50 to 500 nM
CC(C)n1cc(Nc2ncc(Br)c(Nc3ccc4nccnc4c3N(C)S(C)(=O)=O)n2)cn1 [Compound I-388] | ≤ 50 nM
COc1cc(N2CCC(N3CCN(C)CC3)CC2)c(C)cc1Nc1nc(Nc2ccc3nccnc3c2N(C)S(C)(=O)=O)c2ccsc2n1 [II-2-1] | 500 to 2500 nM

response.value for CN1CCN(C2CCN(c3ccc(Nc4nc(Nc5ccc6nccnc6c5N(C)S(C)(=O)=O)c5occc5n4)c(OC(F)(F)F)c3)CC2)CC1 [II-1-40] (field: IC50) = 500 to 2500 nM

response.value for CCc1cc(Nc2ncc(C(C)C)c(Nc3ccc4nccnc4c3N(C)S(C)(=O)=O)n2)c(OC)cc1N1CCC(N(C)C)C1 (stereo not drawn) [Compound I-331] (field: IC50) = 50 to 500 nM

* * *

Reported IC50 is given for each of the following compounds.
# measuredTarget: various mutants of kinase EGFR (BaF3 cell lines stably transfected with kinase) (Homo sapiens, UniProt P00533, L858R/T790M)
# Construct: expressed in transfected cells; host or cells: BaF3
# experimentalDetails: Growth inhibitory activity of compounds on BaF3 cell lines stably transfected with kinase (MTS, 48 h)
# Assay type: cell-based
# conditionSet: BaF3 cells stably transfected with EGFR L858R/T790M, read-out: IC50, growth inhibition, L858R/T790M
# Experimental: The activity of compounds against various mutants of kinase EGFR was evaluated by their effect of inhibiting growth of BaF3 cell lines stably transfected with kinase. The specific test method was given as follows: […] 3) Compound test: cells were incubated into a 96-well culture plate, the volume of cytosol was 90 µL, and then 10 µL of the compound at each gradient concentration was added. […] OD values at 490 nm were measured by a microplate reader (VARIOSKAN FLASH, Thermo). […]

Worked set:
smiles | reportedMeasurement
COc1cc(N2CCC(N3CCN(C)CC3)CC2)c(C)cc1Nc1ncc(F)c(Nc2ccc3nccnc3c2N(C)S(=O)(=O)C2CC2)n1 | ≤ 50 nM
COc1nc(N2CCC(N3CCN(C)CC3)CC2)ccc1Nc1ncc(Cl)c(Nc2ccc3nccnc3c2N(C)S(C)(=O)=O)n1 | 50 to 500 nM

Please turn your attention to the following entry.
response.value for COc1cc(N2CCC(N3CCN(C)CC3)CC2)c(Cc2ccccc2)cc1Nc1ncc(Cl)c(Nc2ccc3nccnc3c2N(C)S(C)(=O)=O)n1 (field: IC50) = 500 to 2500 nM

* * *

# measuredTarget: various mutants of kinase EGFR (BaF3 cell lines stably transfected with kinase) (Homo sapiens, UniProt P00533, L858R/T790M)
# Construct: expressed in transfected cells; host or cells: BaF3
# experimentalDetails: Growth inhibitory activity of compounds on BaF3 cell lines stably transfected with kinase (MTS, 48 h)
# Assay type: cell-based
# conditionSet: BaF3 cells stably transfected with EGFR L858R/T790M, read-out: IC50, growth inhibition, L858R/T790M
pIC50: −log10 of the molar value.
Reported pIC50 is given for each of the following compounds.

response.value for COc1cc(N2CCC(N(C)C)CC2)c(C)cc1Nc1ncc([N+](=O)[O-])c(Nc2ccc3nccnc3c2N(C)S(C)(=O)=O)n1 (field: pIC50) = ≥ 7.30

response.value for C=Cc1cc(Nc2ncc(C3CC3)c(Nc3ccc4nccnc4c3N(C)S(C)(=O)=O)n2)c(OC(F)(F)F)cc1N1CCC(N2CCN(C)CC2)CC1 (field: pIC50) = 6.30 to 7.30
